# EXPERIMENTAL TARGET: Histone deacetylase 8 (Homo sapiens, UniProt Q9BY41)
# Sequence (Q9BY41 whole entry): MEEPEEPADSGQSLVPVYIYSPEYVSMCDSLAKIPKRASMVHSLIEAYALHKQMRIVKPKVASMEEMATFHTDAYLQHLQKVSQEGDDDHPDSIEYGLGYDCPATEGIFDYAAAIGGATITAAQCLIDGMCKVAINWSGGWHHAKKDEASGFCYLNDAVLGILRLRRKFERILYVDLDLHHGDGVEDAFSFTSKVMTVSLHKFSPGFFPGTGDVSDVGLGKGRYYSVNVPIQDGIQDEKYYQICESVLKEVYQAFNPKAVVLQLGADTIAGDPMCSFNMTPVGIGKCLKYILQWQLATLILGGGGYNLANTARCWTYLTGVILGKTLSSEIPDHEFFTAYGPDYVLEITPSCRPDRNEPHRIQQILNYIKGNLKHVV
# ASSAY INFO: Inhibition of recombinant human HDAC8 using fluorogenic substrate by fluorescence microplate reader assay
ENDPOINT: IC50

[[record]]
sample_smiles = "C[C@H](CN(C)Cc1ccccc1)NC(=O)c1ccc(-c2noc(C(F)(F)F)n2)cc1"
endpoint = "IC50"
reported_measurement = "> 600 nM"


For record CC(C)(CNC(=O)c1cccc(-c2noc(C(F)(F)F)n2)c1)c1coc(-c2ccccc2)n1 the listed IC50 is > 5000 nM

----------
# EXPERIMENTAL TARGET: UniProtKB Q9UQL6
# Sequence (Q9UQL6 whole entry): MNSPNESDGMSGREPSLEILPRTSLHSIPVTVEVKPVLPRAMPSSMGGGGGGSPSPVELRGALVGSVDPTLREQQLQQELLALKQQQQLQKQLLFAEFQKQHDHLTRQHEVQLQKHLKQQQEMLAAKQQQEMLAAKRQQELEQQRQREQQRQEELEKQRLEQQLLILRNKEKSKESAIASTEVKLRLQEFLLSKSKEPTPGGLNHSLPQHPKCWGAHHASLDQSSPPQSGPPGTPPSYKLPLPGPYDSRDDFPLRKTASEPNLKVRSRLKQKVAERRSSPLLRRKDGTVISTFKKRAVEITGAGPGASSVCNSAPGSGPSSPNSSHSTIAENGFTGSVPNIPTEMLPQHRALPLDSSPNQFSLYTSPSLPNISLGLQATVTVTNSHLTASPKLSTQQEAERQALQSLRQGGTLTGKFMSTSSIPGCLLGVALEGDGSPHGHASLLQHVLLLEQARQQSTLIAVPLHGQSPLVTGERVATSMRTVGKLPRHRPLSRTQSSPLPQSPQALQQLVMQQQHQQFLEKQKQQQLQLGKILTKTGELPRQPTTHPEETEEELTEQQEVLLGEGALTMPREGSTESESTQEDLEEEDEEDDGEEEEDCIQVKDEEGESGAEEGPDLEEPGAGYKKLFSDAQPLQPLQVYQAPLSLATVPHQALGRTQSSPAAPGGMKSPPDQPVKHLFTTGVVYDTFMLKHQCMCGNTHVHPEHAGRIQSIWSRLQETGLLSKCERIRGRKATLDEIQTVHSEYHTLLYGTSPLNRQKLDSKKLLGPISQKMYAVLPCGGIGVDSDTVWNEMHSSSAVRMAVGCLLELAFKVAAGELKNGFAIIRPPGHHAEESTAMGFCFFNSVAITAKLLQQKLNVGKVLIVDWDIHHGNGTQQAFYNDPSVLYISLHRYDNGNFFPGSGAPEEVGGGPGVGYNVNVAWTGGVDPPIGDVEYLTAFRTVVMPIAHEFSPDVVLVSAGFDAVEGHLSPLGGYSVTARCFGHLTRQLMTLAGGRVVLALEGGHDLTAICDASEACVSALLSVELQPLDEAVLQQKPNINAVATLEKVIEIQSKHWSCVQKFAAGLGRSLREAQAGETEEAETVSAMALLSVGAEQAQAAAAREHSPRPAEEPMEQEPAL
# ASSAY INFO: Inhibition of recombinant human HDAC5 using fluorogenic substrate by fluorescence microplate reader assay
The following compounds are listed with their measured pIC50 values.
Give only the number. pIC50 is defined as minus log10 of concentration in molar units.

[[record]]
sample_smiles = "C[C@H](CN(C)Cc1ccccc1)NC(=O)c1ccc(-c2noc(C(F)(F)F)n2)cc1"
reported_measurement = 8.92


Now take the following compound into account.
The compound listed as CC(C)(CNC(=O)c1cccc(-c2noc(C(F)(F)F)n2)c1)c1coc(-c2ccccc2)n1 has a reported pIC50 of 6.83

----------
# EXPERIMENTAL TARGET: Histone deacetylase 3 (Homo sapiens, UniProt O15379)
# Sequence (O15379 whole entry): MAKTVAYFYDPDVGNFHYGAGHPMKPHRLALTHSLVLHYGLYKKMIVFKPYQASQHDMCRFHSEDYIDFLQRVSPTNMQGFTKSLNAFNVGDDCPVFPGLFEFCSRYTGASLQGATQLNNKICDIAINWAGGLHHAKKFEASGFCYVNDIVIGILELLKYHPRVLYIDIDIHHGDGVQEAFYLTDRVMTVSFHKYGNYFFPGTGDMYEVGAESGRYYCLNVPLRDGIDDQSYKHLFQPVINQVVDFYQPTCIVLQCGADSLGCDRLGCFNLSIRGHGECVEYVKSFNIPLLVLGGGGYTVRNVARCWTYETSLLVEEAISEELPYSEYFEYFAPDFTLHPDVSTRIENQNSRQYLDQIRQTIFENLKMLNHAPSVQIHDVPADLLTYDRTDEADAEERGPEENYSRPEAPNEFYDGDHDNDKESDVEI
# ASSAY INFO: Inhibition of recombinant human HDAC3 using fluorogenic substrate by fluorescence microplate reader assay
pIC50: −log10 of the molar value.
We begin with a simple list: items and their reported pIC50.

[[record]]
sample_smiles = "C[C@H](CN(C)Cc1ccccc1)NC(=O)c1ccc(-c2noc(C(F)(F)F)n2)cc1"
experimental_target = "Histone deacetylase 3 (Homo sapiens, UniProt O15379)"
endpoint = "pIC50"
reported_measurement = "< 6.22"


Per the record, CC(C)(CNC(=O)c1cccc(-c2noc(C(F)(F)F)n2)c1)c1coc(-c2ccccc2)n1 has pIC50 of < 5.30

----------
# ASSAY INFO: Inhibition of HDAC class 2b in human HT-29 cells using Boc-Lys-Ac as substrate incubated for 3 hrs by microplate reader assay
# Type: cell-based
# CONDITION INFO: HT-29, 3 h
pIC50: −log10 of the molar value.
ENDPOINT: pIC50

Completed entries (count: 5):
[[record]]
compound = "COC[C@@H](NC(=O)c1ccc(-c2noc(C(F)(F)F)n2)cc1)C(=O)NCc1ccc(F)cc1"
reported_measurement = "< 4.82"

[[record]]
compound = "CN(Cc1ccccc1)C(=O)CCNC(=O)c1ccc(-c2noc(C(F)(F)F)n2)cc1"
reported_measurement = "< 4.82"

[[record]]
compound = "C[C@@H](NC(=O)c1ccc(-c2noc(C(F)(F)F)n2)cc1)C(=O)NCc1ccccc1"
reported_measurement = "< 4.82"

[[record]]
compound = "C[C@H](CN(C)Cc1ccc(F)cc1)NC(=O)c1ccc(-c2noc(C(F)(F)F)n2)cc1"
reported_measurement = "< 4.82"

[[record]]
compound = "C[C@H](CN(C)Cc1ccccc1)NC(=O)c1ccc(-c2noc(C(F)(F)Br)n2)cc1"
reported_measurement = "< 5.30"


# pIC50 (compound: COC[C@@H](NC(=O)c1ccc(-c2noc(C(F)(F)F)n2)cc1)C(=O)NCc1ccccc1 ) is < 4.82

Reported pIC50 for CC(CN(C)Cc1ccccc1)NC(=O)c1ccc(-c2noc(C(F)(F)F)n2)cc1 (centres undefined) was < 4.30

For this compound ( CC(C)(CNC(=O)c1cccc(-c2noc(C(F)(F)F)n2)c1)c1coc(-c2ccccc2)n1 ), measured pIC50 is < 4.30

In plain terms, C[C@H](CN(C)Cc1ccccc1)NC(=O)c1ccc(-c2noc(C(F)(F)F)n2)cc1 has a documented pIC50 of < 4.82
